molecular target: Isocitrate dehydrogenase [NADP], mitochondrial (Homo sapiens); experiment: Inhibition of human C-terminal FLAG-tagged IDH2-R140Q mutant (1 to 452 residues) expressed in baculovirus infeceted sf9 cells assessed as inhibition of ketoreductase activity preincubated for 10 mins followed by addition of NADPH and alpha-KG as substrate by fluorescence method
pIC50: −log10 of the molar value.
MEASUREMENT_NAME: pIC50

Item `C[C@@H]1CN([C@@H](C)CO)S(=O)(=O)c2ccc(C#Cc3cccc(F)c3)cc2O[C@H]1CN(C)C(=O)NC1CCCCC1` has what recorded pIC50? < 4.70

###

target: Isocitrate dehydrogenase [NADP] cytoplasmic (Homo sapiens, UniProt O75874, R132H); experiment: Inhibition of IDH1-R132H mutant (unknown origin) expressed in human HA1EM cells assessed as suppression of R-2HG secretion measured after 72 hrs by LC-MS/MS analysis
Sequence (O75874 whole entry R132H): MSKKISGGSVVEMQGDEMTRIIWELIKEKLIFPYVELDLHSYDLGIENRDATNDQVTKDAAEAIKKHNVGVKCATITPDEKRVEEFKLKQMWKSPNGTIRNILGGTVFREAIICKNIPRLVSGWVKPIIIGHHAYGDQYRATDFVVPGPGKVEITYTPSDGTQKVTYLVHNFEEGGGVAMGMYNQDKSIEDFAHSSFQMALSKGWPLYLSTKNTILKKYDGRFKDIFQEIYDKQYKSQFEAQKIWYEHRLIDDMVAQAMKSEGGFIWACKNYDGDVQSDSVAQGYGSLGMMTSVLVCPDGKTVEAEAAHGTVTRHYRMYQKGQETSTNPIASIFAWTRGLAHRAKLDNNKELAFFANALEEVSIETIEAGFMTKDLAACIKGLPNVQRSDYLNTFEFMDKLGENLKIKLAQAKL
MEASUREMENT_NAME: EC50 (nM)
Reply numerically in nM, unit not repeated.

COMPOUND	SCALE_UNIT	EC50
Cc1ccccc1C(C(=O)NC1CCCCC1)N(C(=O)Cn1ccnc1C)c1cccc(F)c1 (configuration not stated)	nM	60

Can you share its EC50? I mean this compound: `C[C@@H]1CN([C@@H](C)CO)S(=O)(=O)c2ccc(C#Cc3cccc(F)c3)cc2O[C@H]1CN(C)C(=O)NC1CCCCC1` 300
